- TGT: hCB1 (Homo sapiens, UniProt P21554)
- Sequence (P21554 whole entry): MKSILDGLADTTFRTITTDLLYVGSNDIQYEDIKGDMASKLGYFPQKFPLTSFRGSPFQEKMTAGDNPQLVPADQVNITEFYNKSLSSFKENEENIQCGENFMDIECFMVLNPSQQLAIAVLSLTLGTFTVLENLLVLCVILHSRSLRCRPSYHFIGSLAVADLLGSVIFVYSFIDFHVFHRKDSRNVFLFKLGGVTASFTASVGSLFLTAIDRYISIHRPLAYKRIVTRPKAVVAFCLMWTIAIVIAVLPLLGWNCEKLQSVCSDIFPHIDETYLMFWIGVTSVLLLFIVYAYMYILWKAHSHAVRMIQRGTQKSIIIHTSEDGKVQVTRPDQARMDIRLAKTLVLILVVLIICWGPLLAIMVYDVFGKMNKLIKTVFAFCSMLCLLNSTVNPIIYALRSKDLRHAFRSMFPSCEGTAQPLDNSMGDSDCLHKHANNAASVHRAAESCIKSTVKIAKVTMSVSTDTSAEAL
- PROTOCOL NOTES: bioSensAll ebBRET signaling profiling, hCB1
- Format: cell-based
- Set-up: host or cells: HEK293SL cells, transient PEI transfection
- CONDITIONS: Gi1 biosensor; Log [Compound] (M) -9.15521
PROPERTY: Gi1 hCB1 response
Answer with the value's number alone.

Inquiry: Output measured Gi1 hCB1 response for this item: Cc1cc(C(=O)NC(c2ccco2)c2ccco2)nn1-c1cccc(C(F)(F)F)c1 [‘1090]
Reply text: -19.4162

Inquiry: Provide measured Gi1 hCB1 response value, entry: COc1cccc(C(NC(=O)c2cc(C)n(-c3cccc(C(F)(F)F)c3)n2)c2ccco2)c1 (centres unmarked) [‘1087]
Reply text: -24.5192

Inquiry: Report Gi1 hCB1 response, nothing else, for this molecule: Cc1cc(C(=O)NC(c2ccccc2)c2ccco2)nn1-c1cccc(C#N)c1 (centres unmarked) [‘12565]
Reply text: -12.5675

Inquiry: In one line, give reported Gi1 hCB1 response of the entry Cc1cc(C(=O)N2CC3(CCC3)[C@@H]2[C@@H]2CCCO2)nn1-c1cccc(C(F)(F)F)c1 [‘3386] .
Reply text: -6.435

Inquiry: Please report Gi1 hCB1 response for the following molecule: Cc1cc(C(=O)NC(c2ccccc2)c2ccco2)nn1-c1cccc(C(F)(F)F)c1 (centres unmarked) [‘1081]
Reply text: -3.123

Inquiry: Given COC(=O)C(NC(=O)c1cc(C)n(-c2cccc(C(F)(F)F)c2)n1)c1cccs1 (centres unmarked) [‘60154] , respond with its Gi1 hCB1 response.
Reply text: -1.31

Inquiry: Please look at this molecule and report its Gi1 hCB1 response: COC(=O)[C@@H]1[C@@H]2CC[C@@H]2CN1C(=O)c1cc(C)n(-c2cccc(C(F)(F)F)c2)n1 [‘6448]
Reply text: 0.03327

Inquiry: Please give measured Gi1 hCB1 response of the following entry: Cc1cc(C(=O)N2CC3(CCC3)[C@@H]2[C@H]2CCCO2)nn1-c1cccc(C(F)(F)F)c1 (single isomer, unassigned) [compound 430]
Reply text: -2.764

###

- TGT: CB1 (rCB1) (Rattus norvegicus)
- PROTOCOL NOTES: Single-point radioligand displacement screen
- Assay type: binding
- CONDITIONS: Figure 1c source data, replicate 1
Outcome: MET for rep1_displacement of at least 40; NOT MET for anything lower.

Look over these answered cases.
>  <COMPOUND>
COC(=O)c1nc(N(C)CCOc2ccc(Br)cc2)sc1C

>  <TGT>
CB1 (rCB1) (Rattus norvegicus)

>  <DISCRETE LABEL>
NOT MET

$$$$
>  <COMPOUND>
COc1cc(C(=O)OCC2CCCN2c2ccc(C)nn2)ccc1Cl (stereo not drawn)

>  <TGT>
CB1 (rCB1) (Rattus norvegicus)

>  <DISCRETE LABEL>
NOT MET

$$$$
>  <COMPOUND>
O=C(CCc1ccccc1)c1cn(C2(c3ccc(F)cc3)CCOCC2)nn1

>  <TGT>
CB1 (rCB1) (Rattus norvegicus)

>  <DISCRETE LABEL>
MET

$$$$

Inquiry: Is rep1_displacement for Cc1c(C(=O)OCC2CSc3ccccc3O2)cnn1Cc1ccccc1 (stereo not drawn) at or above 40?
Reply text: MET

Inquiry: Does the compound "CC(C)c1ncc(Cl)c(C(=O)N2CC(Cc3ccccc3Cl)C2)n1" have recorded rep1_displacement that is 40 or more?
Reply text: NOT MET

Inquiry: Does "O=C1CN(C(=O)c2cc3cc(Br)ccc3o2)CN1Cc1ccccc1" have a reported rep1_displacement of at least 40?
Reply text: NOT MET

Inquiry: Answer whether rep1_displacement of CCOC(=O)CCC(OC(=O)c1nc(C)n(-c2ccccc2)n1)c1ccccc1 (stereo not drawn) is greater than or equal to 40.
Reply text: NOT MET

Inquiry: Does COC(=O)C(NC(=O)c1cc(C)n(-c2cccc(F)c2)n1)c1cccs1 (stereo not drawn) have a reported rep1_displacement of at least 40?
Reply text: MET

Inquiry: Entry COC1CCn2cc(C(=O)NCC(Cc3ccccc3)c3ccccc3)nc2C1 (stereo not drawn) : is its rep1_displacement no less than 40?
Reply text: NOT MET

Inquiry: Does the reported rep1_displacement for "CN(C)c1cc(-c2nc(Cc3ccc4c(c3)OCCO4)no2)c2ccccc2n1" fall at or above the 40 mark?
Reply text: MET

Inquiry: Does "Cc1ccn2cc(C(=O)N3CCc4c(F)cc(Br)cc4C3)nc2c1" have a reported rep1_displacement of at least 40?
Reply text: NOT MET

Inquiry: Decide: is the reported value of rep1_displacement for O=C1C(=O)N(C23CC4CC(CC(C4)C2)C3)C(=O)N1CC1CCC(C(F)(F)F)CC1 (stereo not drawn) equal to or greater than 40?
Reply text: MET

Inquiry: Identify whether the reported rep1_displacement of the following compound is 40 or greater: "O=C(OCc1nc2ccccc2s1)c1c2c(nc3ccccc13)CCC2"
Reply text: NOT MET

###

- TGT: hCB1 (Homo sapiens)
- PROTOCOL NOTES: bioSensAll ebBRET signaling profiling, hCB1
- Format: cell-based
- Parameters: host or cells: HEK293SL cells, transient PEI transfection
- CONDITIONS: Barr2+GRK2 biosensor; Log [Compound] (M) -4.22186
PROPERTY: Barr2+GRK2 hCB1 response
API doc: respond with a numeric literal and nothing else, no unit.

# example entries with known answers
>  <COMPOUND>
Brc1cc2c(cc1Cc1noc(-c3cnn(CC4CC4)c3)n1)OCO2 [‘5424]

>  <Barr2+GRK2 hCB1 response>
13.3846

$$$$
>  <COMPOUND>
Cc1nc(CC2CC2)oc1-c1nc(Cc2cc3c(cc2Br)OCO3)no1 [‘7019]

>  <Barr2+GRK2 hCB1 response>
62.2028

$$$$
>  <COMPOUND>
Cn1nc(-c2nnc(C(C)(C)Oc3ccc(Cl)cc3)o2)c2ccccc2c1=O [‘0450]

>  <Barr2+GRK2 hCB1 response>
27.1048

$$$$

Inquiry: State, in one line, measured Barr2+GRK2 hCB1 response of Cc1c(C(=O)OCC2CSc3ccccc3O2)cnn1Cc1ccccc1 (stereo not drawn) [‘7800]
Reply text: 3.174

Inquiry: Give Barr2+GRK2 hCB1 response for the following compound: Cc1nn(Cc2ccc(Cl)cc2)c(C)c1C(=O)OCC1CSc2ccccc2O1 (stereo not drawn) [‘5463]
Reply text: -7.036

Inquiry: Tell us which Barr2+GRK2 hCB1 response value is on record for Cn1nc(-c2nnc(C(C)(C)Oc3ccc(C(F)(F)F)cc3)o2)c2ccccc2c1=O [‘2153]
Reply text: 52.3115

###

- TGT: UniProt P21554
- PROTOCOL NOTES: bioSensAll ebBRET signaling profiling, hCB1
- Type: cell-based
- Set-up: host or cells: HEK293SL cells, transient PEI transfection
- CONDITIONS: Barr2+GRK2 biosensor; Log [Compound] (M) -11.0177
PROPERTY: Barr2+GRK2 hCB1 response

Take a look at these entries with their results.
>  <COMPOUND>
Cn1nc(-c2nnc(C(C)(C)Oc3ccc(C(F)(F)F)cc3)o2)c2ccccc2c1=O

>  <Barr2+GRK2 hCB1 response>
-18.8417

$$$$
>  <COMPOUND>
Cc1c(C(=O)OCC2CSc3ccccc3O2)cnn1Cc1ccccc1 (stereo not drawn)

>  <Barr2+GRK2 hCB1 response>
-60.6403

$$$$

Next item in the queue.
Inquiry: Identify Barr2+GRK2 hCB1 response associated with the compound "Brc1cc2c(cc1Cc1noc(-c3cnn(CC4CC4)c3)n1)OCO2"
Reply text: -49.7918

###

- TGT: CB1 (rCB1) (Rattus norvegicus, UniProt P20272)
- Sequence (P20272 whole entry): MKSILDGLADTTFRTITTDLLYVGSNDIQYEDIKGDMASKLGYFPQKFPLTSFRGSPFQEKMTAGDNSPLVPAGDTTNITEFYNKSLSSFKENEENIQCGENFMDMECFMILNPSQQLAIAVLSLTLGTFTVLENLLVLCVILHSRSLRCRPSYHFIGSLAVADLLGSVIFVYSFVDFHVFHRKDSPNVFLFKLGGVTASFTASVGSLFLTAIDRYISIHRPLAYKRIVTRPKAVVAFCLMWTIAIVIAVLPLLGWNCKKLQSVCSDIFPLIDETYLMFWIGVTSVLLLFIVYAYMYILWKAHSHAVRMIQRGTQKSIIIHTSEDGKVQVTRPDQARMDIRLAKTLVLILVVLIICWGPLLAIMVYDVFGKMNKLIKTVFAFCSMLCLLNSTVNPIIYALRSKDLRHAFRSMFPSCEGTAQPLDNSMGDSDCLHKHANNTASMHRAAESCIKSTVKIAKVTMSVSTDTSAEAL
- PROTOCOL NOTES: Single-point radioligand displacement screen
- Type: binding
- CONDITIONS: Figure 1c source data, replicate 1
Field: label. Allowed values: yes (1) (rep1_displacement < 20) or no (0) (rep1_displacement >= 20).

>  <COMPOUND>
CN(CCOc1ccc(Br)cc1)c1ncnc(-c2ccccc2)n1 [compound 55901]

>  <DISCRETE LABEL>
no (0)

$$$$
>  <COMPOUND>
Cn1cc2c(n1)CCCC2c1nc(C2(c3cccc(C(F)(F)F)c3)CC2)no1 (stereo not drawn) [compound 18525]

>  <DISCRETE LABEL>
no (0)

$$$$
>  <COMPOUND>
Cn1ncc2c(N3CCC(COCc4ccccc4)C3)nc(Cl)nc21 (stereo not drawn) [compound 66978]

>  <DISCRETE LABEL>
yes (1)

$$$$
>  <COMPOUND>
Cc1onc(-c2ccccc2)c1C(=O)OCc1cn2cc(Cl)ccc2n1 [compound 74872]

>  <DISCRETE LABEL>
no (0)

$$$$
>  <COMPOUND>
Cc1nc(CC2CC2)oc1-c1nc(Cc2cc3c(cc2Br)OCO3)no1 [‘7019]

>  <DISCRETE LABEL>
no (0)

$$$$
>  <COMPOUND>
O=C(OCc1ncnn1-c1ccccc1)c1csc(Cc2ccccc2F)n1 [compound 67565]

>  <DISCRETE LABEL>
yes (1)

$$$$
>  <COMPOUND>
CC1OCCC12CN(C(=O)c1oc3ccccc3c1COc1ccccc1)CCO2 (stereo not drawn) [compound 70889]

>  <DISCRETE LABEL>
no (0)

$$$$
>  <COMPOUND>
O=C1CN(C(=O)c2ccc(Cl)c3cccnc23)CN1Cc1ccccc1 [compound 14861]

>  <DISCRETE LABEL>
yes (1)

$$$$

Inquiry: Decide: rep1_displacement of COc1cccc(C2(C)CCN(C(=O)CC34CCCCC3C4(F)F)C2)c1 (stereo not drawn) [‘7218] strictly below 20?
Reply text: no (0)
